FYI, the data here is from the supplement of paper PMC10126150.

# Test system: ATP;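 also: ATP exposure 15 min at 22 °C before imaging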
# experimentNotes: switch fluorescence ratio, 500 uM ATP over buffer (Cy3 cluster intensity, sum of 5 cycles each) (fold (ratio)); higher = stronger signal-on switching upon ATP binding; sequences stand for … in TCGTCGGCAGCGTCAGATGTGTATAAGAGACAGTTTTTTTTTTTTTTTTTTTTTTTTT…TC
# experimentalSetup: aptamer strand: ATP DNA aptamer (quencher-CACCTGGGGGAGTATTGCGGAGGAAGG + anchor), 100 nM annealed; ATP concentration: 500 uM
Quick rule: switch fluorescence ratio of at least 1 means label 1, below that means label 0.

>  <querySequence>
TATTTGCGCG

>  <classLabel>
label 0

$$$$
>  <querySequence>
TGATTGTGGG

>  <classLabel>
label 1

$$$$
>  <querySequence>
GCACGTGTTC

>  <classLabel>
label 1

$$$$
>  <querySequence>
TTGGATATGT

>  <classLabel>
label 0

$$$$
>  <querySequence>
AGCTAATTCG

>  <classLabel>
label 1

$$$$
>  <querySequence>
GATCTGGGGC

>  <classLabel>
label 1

$$$$
>  <querySequence>
TGGGTAGAAC

>  <classLabel>
label 1

$$$$
>  <querySequence>
AACGTTTTCC

>  <classLabel>
label 1

$$$$
>  <querySequence>
TGTTTTTCTG

>  <classLabel>
label 0

$$$$
>  <querySequence>
TTTCCGGCGG

>  <classLabel>
label 1

$$$$
>  <querySequence>
AGAAGAATTG

>  <classLabel>
label 1

$$$$
>  <querySequence>
CTCTGCTCGC

>  <classLabel>
label 1

$$$$
>  <querySequence>
CGCATGATAG

>  <classLabel>
label 1

$$$$
>  <querySequence>
TTTGGGGCAT

>  <classLabel>
label 1

$$$$
>  <querySequence>
AAAGATAGGC

>  <classLabel>
label 0

$$$$
>  <querySequence>
GCTACCATAT

>  <classLabel>
label 1

$$$$
>  <querySequence>
TTGGGCAACT

>  <classLabel>
label 1

$$$$

---

# System: ATP;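 also: ATP exposure 15 min at 22 °C before imaging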
# experimentNotes: switch fluorescence ratio, 500 uM ATP over buffer (Cy3 cluster intensity, sum of 5 cycles each) (fold (ratio)); higher = stronger signal-on switching upon ATP binding; sequences stand for … in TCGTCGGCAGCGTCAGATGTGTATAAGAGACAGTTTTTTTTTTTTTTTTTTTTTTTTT…TC
# experimentalSetup: aptamer strand: ATP DNA aptamer (quencher-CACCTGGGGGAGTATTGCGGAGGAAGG + anchor), 100 nM annealed; ATP concentration: 500 uM

>  <querySequence>
CGGGTGGTTT

>  <switch fluorescence ratio>
0.988

$$$$
>  <querySequence>
TGGTGTGACA

>  <switch fluorescence ratio>
0.995

$$$$
>  <querySequence>
AAACGTGAGT

>  <switch fluorescence ratio>
0.985

$$$$
>  <querySequence>
GAGCGGCGGG

>  <switch fluorescence ratio>
0.996

$$$$
>  <querySequence>
GGGGGTTGAT

>  <switch fluorescence ratio>
0.991

$$$$
>  <querySequence>
GTTGTTTGGG

>  <switch fluorescence ratio>
0.99

$$$$
>  <querySequence>
AGGTACAGAC

>  <switch fluorescence ratio>
1.12

$$$$
>  <querySequence>
CGTGCACCGG

>  <switch fluorescence ratio>
1

$$$$
>  <querySequence>
CGAAATGTCC

>  <switch fluorescence ratio>
1.06

$$$$
>  <querySequence>
TTTCTGGGTC

>  <switch fluorescence ratio>
1.02

$$$$
>  <querySequence>
GGTTGGGATC

>  <switch fluorescence ratio>
0.951

$$$$
>  <querySequence>
TATGGACA

>  <switch fluorescence ratio>
1.05

$$$$
>  <querySequence>
CGTGAAAGTA

>  <switch fluorescence ratio>
0.996

$$$$
>  <querySequence>
CTGTTCGCCA

>  <switch fluorescence ratio>
1.07

$$$$
>  <querySequence>
AATGGGGCCT

>  <switch fluorescence ratio>
1.03

$$$$
>  <querySequence>
CAGGGGGCAG

>  <switch fluorescence ratio>
1.05

$$$$
>  <querySequence>
GATAGTAGTT

>  <switch fluorescence ratio>
0.985

$$$$
>  <querySequence>
ATTTCTCAGG

>  <switch fluorescence ratio>
1.07

$$$$
>  <querySequence>
CTTGGAGGAA

>  <switch fluorescence ratio>
0.999

$$$$
>  <querySequence>
GCATTATGGG

>  <switch fluorescence ratio>
1.02

$$$$
>  <querySequence>
ACGGAATATT

>  <switch fluorescence ratio>
1.17

$$$$
>  <querySequence>
TATCGTAGGC

>  <switch fluorescence ratio>
1

$$$$
>  <querySequence>
GAGGGCGGCG

>  <switch fluorescence ratio>
1.01

$$$$
>  <querySequence>
GCACGGTCGG

>  <switch fluorescence ratio>
1.01

$$$$
>  <querySequence>
CAATTTACGG

>  <switch fluorescence ratio>
1.1

$$$$
>  <querySequence>
TTGTTTCAGG

>  <switch fluorescence ratio>
1.01

$$$$
>  <querySequence>
TTTTCATCGC

>  <switch fluorescence ratio>
1.18

$$$$
>  <querySequence>
GATGTGGGGC

>  <switch fluorescence ratio>
0.996

$$$$
>  <querySequence>
GCGCTATCTT

>  <switch fluorescence ratio>
1.06

$$$$
>  <querySequence>
TTCGAATTAG

>  <switch fluorescence ratio>
2.28

$$$$
>  <querySequence>
AAAGTCTGAT

>  <switch fluorescence ratio>
0.959

$$$$
>  <querySequence>
GGGGATCGTT

>  <switch fluorescence ratio>
1.02

$$$$
>  <querySequence>
ATTAGGGCAT

>  <switch fluorescence ratio>
1.01

$$$$
>  <querySequence>
TAGTTGTAGG

>  <switch fluorescence ratio>
1.04

$$$$
>  <querySequence>
TTCGAGTTGT

>  <switch fluorescence ratio>
1.01

$$$$
>  <querySequence>
GGCGCTTATA

>  <switch fluorescence ratio>
1

$$$$
>  <querySequence>
GGGTCGCAGA

>  <switch fluorescence ratio>
1.04

$$$$
>  <querySequence>
GGAAGGAGAG

>  <switch fluorescence ratio>
0.986

$$$$
>  <querySequence>
TTGTGAATTT

>  <switch fluorescence ratio>
1.28

$$$$
>  <querySequence>
GGGGTAAATT

>  <switch fluorescence ratio>
1

$$$$
>  <querySequence>
ACATGAGGGG

>  <switch fluorescence ratio>
1.03

$$$$
>  <querySequence>
GCGTTTAATT

>  <switch fluorescence ratio>
1.02

$$$$
>  <querySequence>
GCTTTAATTC

>  <switch fluorescence ratio>
1.03

$$$$

---

# Tested on: ATP;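 also: ATP exposure 15 min at 22 °C before imaging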
# experimentNotes: switch fluorescence ratio, 500 uM ATP over buffer (Cy3 cluster intensity, sum of 5 cycles each) (fold (ratio)); higher = stronger signal-on switching upon ATP binding; sequences stand for … in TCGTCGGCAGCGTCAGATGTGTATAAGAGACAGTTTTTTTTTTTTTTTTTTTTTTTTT…TC
# experimentalSetup: aptamer strand: ATP DNA aptamer (quencher-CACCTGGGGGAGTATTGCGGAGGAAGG + anchor), 100 nM annealed; ATP concentration: 500 uM
Here, each record is paired with measured switch fluorescence ratio data.

>  <querySequence>
CATGTACTTT

>  <target>
ATP;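 also: ATP exposure 15 min at 22 °C before imaging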

>  <switch fluorescence ratio>
1.08

$$$$
>  <querySequence>
AAAAAGGGGT

>  <target>
ATP;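 also: ATP exposure 15 min at 22 °C before imaging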

>  <switch fluorescence ratio>
1.15

$$$$
>  <querySequence>
AGCTCCTCAT

>  <target>
ATP;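 also: ATP exposure 15 min at 22 °C before imaging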

>  <switch fluorescence ratio>
1.1

$$$$
>  <querySequence>
CAAGGTTATA

>  <target>
ATP;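 also: ATP exposure 15 min at 22 °C before imaging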

>  <switch fluorescence ratio>
1

$$$$
>  <querySequence>
ATGGGCTAGC

>  <target>
ATP;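 also: ATP exposure 15 min at 22 °C before imaging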

>  <switch fluorescence ratio>
1.01

$$$$
>  <querySequence>
CCTTTGGATA

>  <target>
ATP;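 also: ATP exposure 15 min at 22 °C before imaging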

>  <switch fluorescence ratio>
1.13

$$$$
>  <querySequence>
GGGTGATGAA

>  <target>
ATP;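 also: ATP exposure 15 min at 22 °C before imaging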

>  <switch fluorescence ratio>
1

$$$$
>  <querySequence>
GGGAACGTGT

>  <target>
ATP;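 also: ATP exposure 15 min at 22 °C before imaging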

>  <switch fluorescence ratio>
0.997

$$$$
>  <querySequence>
GGGAGGATGC

>  <target>
ATP;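 also: ATP exposure 15 min at 22 °C before imaging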

>  <switch fluorescence ratio>
0.993

$$$$
>  <querySequence>
GACGTGCGAC

>  <target>
ATP;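 also: ATP exposure 15 min at 22 °C before imaging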

>  <switch fluorescence ratio>
1.29

$$$$
>  <querySequence>
GACAGGTTGA

>  <target>
ATP;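 also: ATP exposure 15 min at 22 °C before imaging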

>  <switch fluorescence ratio>
0.993

$$$$
>  <querySequence>
GAAGTGAGTT

>  <target>
ATP;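 also: ATP exposure 15 min at 22 °C before imaging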

>  <switch fluorescence ratio>
1

$$$$
>  <querySequence>
GGTTTACGGA

>  <target>
ATP;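 also: ATP exposure 15 min at 22 °C before imaging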

>  <switch fluorescence ratio>
0.964

$$$$
>  <querySequence>
GGTATGGTAC

>  <target>
ATP;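 also: ATP exposure 15 min at 22 °C before imaging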

>  <switch fluorescence ratio>
1.09

$$$$
>  <querySequence>
ATGAGGACCC

>  <target>
ATP;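 also: ATP exposure 15 min at 22 °C before imaging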

>  <switch fluorescence ratio>
0.982

$$$$
>  <querySequence>
AAGTAGGCAC

>  <target>
ATP;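 also: ATP exposure 15 min at 22 °C before imaging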

>  <switch fluorescence ratio>
1.02

$$$$
>  <querySequence>
TTTTAGAAAT

>  <target>
ATP;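 also: ATP exposure 15 min at 22 °C before imaging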

>  <switch fluorescence ratio>
1.98

$$$$
>  <querySequence>
CTGGATGGTG

>  <target>
ATP;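 also: ATP exposure 15 min at 22 °C before imaging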

>  <switch fluorescence ratio>
0.98

$$$$
>  <querySequence>
TGTAGTTTGG

>  <target>
ATP;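 also: ATP exposure 15 min at 22 °C before imaging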

>  <switch fluorescence ratio>
1.02

$$$$
>  <querySequence>
GGTCTTTTGT

>  <target>
ATP;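 also: ATP exposure 15 min at 22 °C before imaging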

>  <switch fluorescence ratio>
0.998

$$$$
